experiment: Long-term stability of QC samples (−20 °C for 20 days); format: physicochemical, rat; settings: plasma QC, spiked 600 ng/mL
I'd appreciate it if you could supply Long-term stability Mean values for the items below.
Please answer using the number first and the unit second.

Worked examples follow.
[[record]]
molecule = "COc1cc(/C=C/C(=O)O)ccc1O [Analyte 6, trans-ferulic acid]"
reported_result = "102.00%"

[[record]]
molecule = "C=C1CC[C@@H]2[C@](C)(CO[C@@H]3O[C@H](CO)[C@@H](O)[C@H](O)[C@H]3O)CCC[C@@]2(C)[C@@H]1CCC1=CCOC1=O [Analyte 5, neoandrographolide]"
reported_result = "82.61%"

[[record]]
molecule = "C=C1CC[C@@H]2[C@](C)(CO)CCC[C@@]2(C)[C@@H]1CCC1=CCOC1=O [Analyte 17, andrograpanin]"
reported_result = "117.51%"

[[record]]
molecule = "C=C1CC[C@@H]2[C@](C)(CO)[C@H](O)CC[C@@]2(C)[C@@H]1/C=C/C1=CCOC1=O [Analyte 15, 14-deoxy-11,12-didehydro-andrographolide]"
reported_result = "88.35%"


# Long-term stability Mean (molecule: C=C1CC[C@@H]2[C@](C)(CO)[C@H](O)CC[C@@]2(C)[C@@H]1C/C=C1/C(=O)OC[C@H]1O [Analyte 12, andrographolide] ) is 96.64%

src = paper PMC7382147
